B1: library; a variant is named by its letters at N, in order (parent)
chain: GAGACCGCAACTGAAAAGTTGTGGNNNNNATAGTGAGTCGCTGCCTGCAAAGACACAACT

Variants of: B1
Assay: ligation selection enrichment (abundance after / before one-round selection) (fold); higher = more template-directed ligation activity
Conditions: with T7Psub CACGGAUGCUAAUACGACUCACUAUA; MgCl2 25 mM; 42 °C; 4 h; pH 8.5
Readout type: ligation selection enrichment

> print(dat)
    variant.label                   readout.type  measured
 1          TGTTT  ligation selection enrichment     0.468
 2          CCCAA  ligation selection enrichment     0.134
 3          AGAGT  ligation selection enrichment     0.253
 4          ATTGC  ligation selection enrichment     0.765
 5          CCGGG  ligation selection enrichment     0.244
 6          TATAG  ligation selection enrichment     0.995
 7          GTAAC  ligation selection enrichment     0.305
 8          GATGA  ligation selection enrichment     0.606
 9          TGGTC  ligation selection enrichment     0.198
10          AGCTT  ligation selection enrichment     0.149
11          TGGAG  ligation selection enrichment      1.12
12          CTATC  ligation selection enrichment     0.144
13          GGAAC  ligation selection enrichment     0.226
14          GTCCT  ligation selection enrichment     0.266
15          AGCCT  ligation selection enrichment     0.307
16          AAACC  ligation selection enrichment     0.196
17          TTGGT  ligation selection enrichment     0.212
18          AGAAC  ligation selection enrichment     0.267
19          GAAGA  ligation selection enrichment     0.306
20          CATAA  ligation selection enrichment     0.159
21          TACGC  ligation selection enrichment     0.191
22          GGGTA  ligation selection enrichment     0.445
23          GATGC  ligation selection enrichment     0.247
24          GCTTG  ligation selection enrichment     0.955
25          ACGTC  ligation selection enrichment     0.172
26          CGCTA  ligation selection enrichment     0.127
27          TCCTG  ligation selection enrichment     0.246
28          GCCAT  ligation selection enrichment      1.25
29          CAAAC  ligation selection enrichment     0.135
30          CCTGC  ligation selection enrichment     0.128
31          AGGGC  ligation selection enrichment     0.109
32          AACAA  ligation selection enrichment     0.209
33          GAACT  ligation selection enrichment     0.882
34          GCGCG  ligation selection enrichment     0.558
35          TTTAG  ligation selection enrichment     0.504
36          CAGTT  ligation selection enrichment     0.238
37          TTACA  ligation selection enrichment     0.193
38          GGGGG  ligation selection enrichment     0.405
39          ACGAG  ligation selection enrichment     0.745
40          GCCAA  ligation selection enrichment     0.222
41          TAACT  ligation selection enrichment     0.925
42          GCCCG  ligation selection enrichment     0.803
43          GGATA  ligation selection enrichment     0.432
44          TACAC  ligation selection enrichment     0.139
45          AGGCG  ligation selection enrichment     0.527
46          GGGCA  ligation selection enrichment     0.298
